Biological target: T1, Human Glypican3-Fc (ACRO Biosystems, GP3-H5258) (human, UniProt P51654 25-559)
T1 construct: Bought fusion protein, captured in Methods B-2, B-3 and B-4; Catalogue number is printed only in Method B-2; not shown: Fc part of the bought fusion
Assay: SPR (Biacore T200), Method B-3: Glypican3-Fc captured on Protein A chip, peptide as analyte
Starred links: 1 amine or outer side, 2 acyl side, 3 side chain; linkers in the order of their positions; H or OH if unused. Positions of bridges follow the written chain, without caps; N, C: chain ends. Non-standard residues stand in square brackets, D forms with d. Groups on a side chain read outwards from the residue. Primed or numbered codes have the meaning given here. *: point of attachment. MeKCOpipzaa″ = (2S)-6-{[4-(carboxymethyl)piperazine-1-carbonyl]amino}-2-(methylamino)hexanoic acid, CN([C@@H](CCCCNC(=O)N1CCN(CC(=O)[*:3])CC1)C(=O)[*:2])[*:1]; DOTA‑Lu = DOTA-lutetium(175) amide on the side-chain amine, O=C([O-])CN1CCN(CC(=O)[O-])CCN(CC(=O)*)CCN(CC(=O)[O-])CC1.[175Lu+3]; W5N = 2-amino-3-(1H-pyrrolo[3,2-c]pyridin-3-yl)propanoic acid (5-aza-tryptophan), O=C([C@H](Cc1c[nH]c2ccncc12)N[*:1])[*:2]; MeHseMe(3) = N-methyl-O-methyl-homoserine, 4-methoxy-2-(methylamino)butanoic acid, COCC[C@@H](C(=O)[*:2])N(C)[*:1]; TMe(3) = O-methyl-L-threonine ((2S,3R)-2-amino-3-methoxybutanoic acid), CO[C@H](C)[C@H](N[*:1])C(=O)[*:2]; F4aao = 4-(carboxymethoxy)-L-phenylalanine, O=C([C@H](Cc1ccc(OCC(=O)[*:3])cc1)N[*:1])[*:2]; MeHseMe(5) = N-methyl-O-methyl-homoserine, COCC[C@@H](C(=O)[*:2])N(C)[*:1]; MeHseMe = N-methyl-O-methyl-L-homoserine, COCC[C@@H](C(=O)[*:2])N(C)[*:1]; Hgn = 2,6-diamino-6-oxohexanoic acid, NC(=O)CCC[C@H](N[*:1])C(=O)[*:2]; Phe(4-(1-Me-pyrazol-4-yl)) = Cn1cc(-c2ccc(C[C@H](N)C(=O)O)cc2)cn1; SulfoCy5 = sulfo-Cyanine5 hexanoyl dye on the side-chain amine; TMe = O-methyl-L-threonine, CO[C@H](C)[C@H](N[*:1])C(=O)[*:2]; TMe″ = O-methyl-threonine, CO[C@H](C)[C@H](N[*:1])C(=O)[*:2]; NMeAla(isoquinolin-7-yl) = CN[C@@H](Cc1ccc2ccncc2c1)C(=O)O; SulfoCy5(3) = sulfo-Cyanine5 hexanoyl dye on the lysine NZ; PEG12 = NCCOCCOCCOCCOCCOCCOCCOCCOCCOCCOCCOCCOCCC(=O)O; Phe(4-CH2COOH) = N[C@@H](Cc1ccc(CC(=O)O)cc1)C(=O)O; 3Pal(6-Ph) = N[C@@H](Cc1ccc(-c2ccccc2)nc1)C(=O)O; Biotin = O=C1N[C@H]2[C@H](CS[C@H]2CCCCC(=O)*)N1; Phe(4-COOH) = N[C@@H](Cc1ccc(C(=O)O)cc1)C(=O)O; S3REt = (3R)-2-amino-3-hydroxypentanoic acid; NMe2Nal = CN[C@@H](Cc1ccc2ccccc2c1)C(=O)O; NMeI = CC[C@H](C)[C@H](NC)C(=O)O; NMeQ = CN[C@@H](CCC(N)=O)C(=O)O; NMeK = CN[C@@H](CCCCN)C(=O)O; NMeC = CN[C@@H](CS)C(=O)O; NMeA = CN[C@@H](C)C(=O)O; MeK = methyl-L-lysine
metric: log10 of Kd (log10 of the value in pM)
Friendly reminder: values = log10 of Kd, unit pM.

## Input Consider the binder {CH2CO}-[NMeA]S[W5N]YIIY[NMe2Nal]G[3Pal(6-Ph)][NMeC]-NH2 (thioether N-11; SMILES CC[C@H](C)[C@@H]1NC(=O)[C@H](Cc2ccc(O)cc2)NC(=O)[C@H](Cc2c[nH]c3ccncc23)NC(=O)[C@H](CO)NC(=O)[C@H](C)N(C)C(=O)CSC[C@@H](C(N)=O)N(C)C(=O)[C@H](Cc2ccc(-c3ccccc3)nc2)NC(=O)CNC(=O)[C@H](Cc2ccc3ccccc3c2)N(C)C(=O)[C@H](Cc2ccc(O)cc2)NC(=O)[C@H]([C@@H](C)CC)NC1=O, 11 residues) [Macrocyclic peptide of Example 2-41 (SEQ ID No. 68)] . State its measured log10 of Kd.
## Output 4.77

## Input Given the binder {CH2CO}-[NMeK](SulfoCy5)[MeHseMe]D[NMeQ][Phe(4-COOH)]II[F4aao][NMeAla(isoquinolin-7-yl)]G[3Pal(6-Ph)][NMeC]-NH2 (thioether N-12) [Mod5] , write its reported log10 of Kd.
## Output 3.56

## Input Return log10 of Kd (reported value) for this binder: ASDYIIYFGXC (not fully specified; MeA-S-(position 3 absent)-D-Y-I-I-Y-MeNal2-G-3Py6Ph-MeC-NH2; thioether ring from N-terminal acetyl to MeC, 11 residues) [Macrocyclic peptide of Example 2-39 (SEQ ID No. 67)]
## Output 4.40

## Input Give reported log10 of Kd value for {CH2CO}-[MeK][NMeQ][Hgn][NMeQ][Phe(4-COOH)][TMe(3)]IY[NMe2Nal]G[Phe(4-(1-Me-pyrazol-4-yl))][NMeC]-NH2 (thioether N-12) [Macrocyclic peptide of Example 2-54 (SEQ ID No. 29)]
## Output 2.00

## Input Provide log10 of Kd value for the following binder: Ac-[NMeK](DOTA‑Lu)[MeHseMe(5)]D[NMeQ][Phe(4-COOH)]IIY[NMeAla(isoquinolin-7-yl)]G[3Pal(6-Ph)][NMeC]-NH2 (bridge N-12; not fully specified (bridges); also: cold Lu-175 chelated by DOTA) [Lu-C-72]
## Output 2.56

## Input Look up and report measured log10 of Kd for this entry: KQDQFTIFFGXC (MeK-MeQ-D-MeQ-F4COO-TMe-I-F4aao-MeNal27N-G-3Py6Ph-MeC-NH2; thioether ring from N-terminal acetyl to MeC12) [Macrocyclic peptide of Example 2-27 (SEQ ID No. 35)]
## Output 3.04

## Input Tell me log10 of Kd reported for {CH2CO}-[MeKCOpipzaa″][MeHseMe]D[NMeQ][Phe(4-COOH)][S3REt]IY[NMeAla(isoquinolin-7-yl)]G[3Pal(6-Ph)][NMeC]-NH2 (thioether N-12) [Macrocyclic peptide of Example 2-25 (SEQ ID No. 59)]
## Output 3.82

## Input Quote log10 of Kd reported for {CH2CO}-[MeK][MeHseMe(3)]D[NMeQ][Phe(4-COOH)]II[Phe(4-CH2COOH)][NMe2Nal]G[Phe(4-(1-Me-pyrazol-4-yl))][NMeC]-NH2 (thioether N-12) [Macrocyclic peptide of Example 2-48 (SEQ ID No. 22)] please.
## Output 2.70

## Input Tell me its log10 of Kd given {CH2CO}-[MeK][NMeI]Q[NMeQ][Phe(4-COOH)]II[Phe(4-COOH)][NMe2Nal]G[Phe(4-(1-Me-pyrazol-4-yl))][NMeC]-NH2 (thioether N-12) [Macrocyclic peptide of Example 2-46 (SEQ ID No. 6)] as the entry.
## Output 2.30

## Input Return value of log10 of Kd for input {CH2CO}-[NMeK](SulfoCy5(3))[MeHseMe]D[NMeQ][Phe(4-COOH)][TMe]I[F4aao][NMeAla(isoquinolin-7-yl)]G[3Pal(6-Ph)][NMeC]-NH2 (thioether N-12) [Mod7] , no commentary.
## Output 3.62

## Input Read the entry {CH2CO}-[NMeK]([PEG12-Biotin])[NMeI]D[NMeQ][Phe(4-COOH)]IIY[NMeAla(isoquinolin-7-yl)]G[3Pal(6-Ph)][NMeC]-NH2 (thioether N-12, Biotin conjugate) [PLB-1] and write its reported log10 of Kd.
## Output 2.40

## Input Give reported log10 of Kd value for KIDQFIIYFGXCG (not fully specified; MeKAc-MeI-D-MeQ-F4COO-I-I-Y-MeNal27N-G-3Py6Ph-MeC-G-PEG12c-K(biotin)-NH2 by Table 13 (Table 1 prints PEG10c and K at positions 14 and 15 of SEQ ID No. 60); thioether ring from N-terminal acetyl to MeC12, Biotin on the C-terminal tail outside the ring) [PLB-60]
## Output 2.04

## Input Identify the reported log10 of Kd for the following entry. Ac-[NMeK](DOTA‑Lu)[NMeI]D[NMeQ][Phe(4-COOH)][TMe″]IY[NMeAla(isoquinolin-7-yl)]G[3Pal(6-Ph)][NMeC]-NH2 (bridge N-12; not fully specified (bridges); also: DOTA-Lu: cold Lu-175 complex) [Lu-C-62]
## Output 2.18

## Input Let me know recorded log10 of Kd for {CH2CO}-[NMeK](SulfoCy5)[NMeI]D[NMeQ][Phe(4-COOH)][TMe]IY[NMeAla(isoquinolin-7-yl)]G[3Pal(6-Ph)][NMeC]-NH2 (thioether N-12) [Mod6] , thanks.
## Output 2.38

## Input Item {CH2CO}-[NMeQ][NMeQ]D[MeK][Phe(4-COOH)]II[Phe(4-CH2COOH)][NMe2Nal]G[Phe(4-(1-Me-pyrazol-4-yl))][NMeC]-NH2 (thioether N-12) [Macrocyclic peptide of Example 2-52 (SEQ ID No. 26)] : provide log10 of Kd
## Output 3.20
